Reported pIC50 values are given for each entry in this list.
# Test system: MCF7 cell line (human breast adenocarcinoma)
# procedure details: MTT cytotoxicity assay, MCF7 cells
# Format: cell-based
# run conditions: MCF7, 24 h treatment
Here pIC50 is given on a logarithmic scale as minus log10 of the concentration in mol/L.

O=[N+]([O-])[O-].O=[N+]([O-])[O-].[Cu+2].c1cnc2c(c1)ccc1cccnc12 [Cu(phen)(NO3)2, reference compound] ... 3.50

# input for lookup
Incoming: Answer with pIC50 of N.N.[Cl][Pt][Cl] [cisplatin (CDDP), cisplatin, reference compound] measured for MCF7 cell line (human breast adenocarcinoma).
Outgoing: 4.28

----------
The entries below come with measured IC50 values attached.
# Test system: DU-145 cell line (human prostate carcinoma)
# procedure details: MTT cytotoxicity assay, DU145 cells
# Type: cell-based
# run conditions: DU145, 24 h treatment
Number only, in µM; omit the unit.

O=[N+]([O-])[O-].O=[N+]([O-])[O-].[Cu+2].c1cnc2c(c1)ccc1cccnc12 [Cu(phen)(NO3)2, reference compound] ... 412

Incoming: Specify reported IC50 for the molecule shown: N.N.[Cl][Pt][Cl] [cisplatin (CDDP), cisplatin, reference compound]
Outgoing: 0.0683

----------
The entries below are paired with their reported IC50.
# System: DU-145 cell line (human prostate carcinoma)
# procedure details: MTT cytotoxicity assay, DU145 cells
# Assay type: cell-based
# run conditions: DU145, 72 h (24 + 48 h recovery)
Express your answer in µM, writing the number without its unit.

O=[N+]([O-])[O-].O=[N+]([O-])[O-].[Cu+2].c1cnc2c(c1)ccc1cccnc12 [Cu(phen)(NO3)2, reference compound] ... 659

Incoming: Write down IC50 measured for item N.N.[Cl][Pt][Cl] [cisplatin (CDDP), cisplatin, reference compound]
Outgoing: 65.5
